test: Acute toxicity in sc dosed mouse administered as single dose; format: organism-based; conditions: in vivo
Please go through the items and note down their LD50.
Numbers only, in mg/kg.

| structure string | units | LD50 |
| --- | --- | --- |
| Cc1c(/C=[N+](\C)[O-])[n+]([O-])c2ccccc2[n+]1[O-] | mg/kg | 596 |

Task: Name the recorded LD50 for `O=[N+]([O-])c1ccc(/C=[N+](/[O-])CCO)o1` .
Output: 417
